Target: Grb2 SH2 (UniProt P62993)
Test: SH2 binding enrichment of the phosphorylated peptide, bacterial display (enrichment ratio); higher = better substrate or ligand; peptides without Tyr show the background
ASSAY METRIC: SH2 binding enrichment

SSRKEYFIGGG [GYPC_Y126]	0.703

(P) EILLSYPRTGF [TGM1_Y365_L366P_YF]
(Q) RLLVIYPWTQR [HBG2_Y36_V35I]
Hi, I'm comparing two records. Which one has the lower SH2 binding enrichment, P or Q ? Identify your selection by its label.
P
(P: 0.821, Q: 1.97)

(P) DTFDPYLDVAL [USP36_Y268_YF]
(Q) EQKKYYNATKK [SCN5A_Y1495_M1498T]
Between P and Q , which one has the lower reported SH2 binding enrichment value? Let me know the label of the one you choose.
P
(P: 0.707, Q: 1.16)

---

System: AncSZ
Assay: phosphorylation enrichment, bacterial display (enrichment ratio); higher = better substrate or ligand; peptides without Tyr show the background
ASSAY METRIC: phosphorylation enrichment
Lab note: jot the number down without any unit.

QRDSSYFWEIE [RAF1_Y340_YF]	2.48
VSFDEYRFRSF [CFTR_Y515_V520F_YF]	0.903
CKLCQYFLDHL [ATRX_Y1849_Y1847C_YF]	1.28
LDPIQYSKHPP [SQSTM1_Y433_T430P]	0.691
IVAREYFSEAD [CAMK2A_Y106_YF]	1.09

API: value(readout= phosphorylation enrichment, system= AncSZ, query= QQIFTYDSGIH [JUP_Y22_T19I_YF] )
1.46

Param readout= phosphorylation enrichment; system= AncSZ; entry= EFGFRYELVQF [UGGT2_Y1289_Y1285F_YF] ; returns value.
1.26

---

sequences and their reported phosphorylation enrichment
Biological target: FGFR3 (UniProt P22607)
Sequence (P22607 whole entry, looked up): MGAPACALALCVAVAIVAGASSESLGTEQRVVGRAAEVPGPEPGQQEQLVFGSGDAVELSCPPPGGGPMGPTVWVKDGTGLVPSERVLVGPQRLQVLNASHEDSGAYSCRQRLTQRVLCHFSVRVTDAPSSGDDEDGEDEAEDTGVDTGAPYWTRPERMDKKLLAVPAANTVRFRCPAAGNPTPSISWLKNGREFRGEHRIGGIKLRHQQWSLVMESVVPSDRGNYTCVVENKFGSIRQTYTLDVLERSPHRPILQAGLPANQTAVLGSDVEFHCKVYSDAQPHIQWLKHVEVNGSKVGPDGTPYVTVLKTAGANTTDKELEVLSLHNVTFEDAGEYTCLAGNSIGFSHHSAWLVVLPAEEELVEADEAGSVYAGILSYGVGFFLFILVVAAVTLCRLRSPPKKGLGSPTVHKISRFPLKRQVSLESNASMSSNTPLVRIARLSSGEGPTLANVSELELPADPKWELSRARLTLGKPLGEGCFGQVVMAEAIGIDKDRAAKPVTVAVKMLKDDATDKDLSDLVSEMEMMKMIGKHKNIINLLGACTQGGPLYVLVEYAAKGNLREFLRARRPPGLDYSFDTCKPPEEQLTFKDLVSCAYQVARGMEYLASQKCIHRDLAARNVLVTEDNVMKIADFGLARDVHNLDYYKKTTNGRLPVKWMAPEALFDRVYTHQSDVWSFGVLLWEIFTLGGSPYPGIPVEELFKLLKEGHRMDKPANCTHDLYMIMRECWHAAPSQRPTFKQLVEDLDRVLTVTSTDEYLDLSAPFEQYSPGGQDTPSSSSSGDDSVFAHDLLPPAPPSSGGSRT
Assay: phosphorylation enrichment, bacterial display (enrichment ratio); higher = better substrate or ligand; peptides without Tyr show the background
API doc: respond with a numeric literal and nothing else, no unit.

RLLVVYPWTQG [HBG2_Y36_R41G]	0.58

Which phosphorylation enrichment is reported for this sequence? NPSFNYEIVNR [DYNC1H1_Y3379_YF]
0.666

Quick check: phosphorylation enrichment of WNDLDYVDSRR [GAA_Y407_M408V] ?
0.67

Name the recorded phosphorylation enrichment for GGMTEYKLVVV [KRAS_Y4] .
0.776

Name the reported phosphorylation enrichment value associated with the sequence GDFFCYLAEVA [YWHAG_Y133_R132C_YF]
0.922

Reported phosphorylation enrichment, sequence QPDLLYDHIQP [TRRAP_Y862_F860L] : ____
1.5

Find the recorded phosphorylation enrichment belonging to IHADICRWFNI [MARS1_Y344_Y344C] and report it.
0.675

---

Target: c-Src SH2
Experiment: SH2 binding enrichment of the phosphorylated peptide, bacterial display (enrichment ratio); higher = better substrate or ligand; peptides without Tyr show the background
ASSAY METRIC: SH2 binding enrichment

Completed entries (count: 3):
WDLPEYSYKDP [ITGA3_Y237_S235P]	0.784
ATPSRYMTFLH [DYNC2H1_Y2872]	1.32
QPAGNYSLSSV [ARFGAP3_Y473]	0.486

(A) AHARMYGVLPW [PLP1_Y207_D203H]
(B) CTTIYYNYMCN [TP53_Y234_H233Y]
For the pair A and B , which member has the lower SH2 binding enrichment number? Your answer should be the label of the entry you select.
A

---

Molecular target: EPHB1 (UniProt P54762)
Sequence (P54762 whole entry, looked up): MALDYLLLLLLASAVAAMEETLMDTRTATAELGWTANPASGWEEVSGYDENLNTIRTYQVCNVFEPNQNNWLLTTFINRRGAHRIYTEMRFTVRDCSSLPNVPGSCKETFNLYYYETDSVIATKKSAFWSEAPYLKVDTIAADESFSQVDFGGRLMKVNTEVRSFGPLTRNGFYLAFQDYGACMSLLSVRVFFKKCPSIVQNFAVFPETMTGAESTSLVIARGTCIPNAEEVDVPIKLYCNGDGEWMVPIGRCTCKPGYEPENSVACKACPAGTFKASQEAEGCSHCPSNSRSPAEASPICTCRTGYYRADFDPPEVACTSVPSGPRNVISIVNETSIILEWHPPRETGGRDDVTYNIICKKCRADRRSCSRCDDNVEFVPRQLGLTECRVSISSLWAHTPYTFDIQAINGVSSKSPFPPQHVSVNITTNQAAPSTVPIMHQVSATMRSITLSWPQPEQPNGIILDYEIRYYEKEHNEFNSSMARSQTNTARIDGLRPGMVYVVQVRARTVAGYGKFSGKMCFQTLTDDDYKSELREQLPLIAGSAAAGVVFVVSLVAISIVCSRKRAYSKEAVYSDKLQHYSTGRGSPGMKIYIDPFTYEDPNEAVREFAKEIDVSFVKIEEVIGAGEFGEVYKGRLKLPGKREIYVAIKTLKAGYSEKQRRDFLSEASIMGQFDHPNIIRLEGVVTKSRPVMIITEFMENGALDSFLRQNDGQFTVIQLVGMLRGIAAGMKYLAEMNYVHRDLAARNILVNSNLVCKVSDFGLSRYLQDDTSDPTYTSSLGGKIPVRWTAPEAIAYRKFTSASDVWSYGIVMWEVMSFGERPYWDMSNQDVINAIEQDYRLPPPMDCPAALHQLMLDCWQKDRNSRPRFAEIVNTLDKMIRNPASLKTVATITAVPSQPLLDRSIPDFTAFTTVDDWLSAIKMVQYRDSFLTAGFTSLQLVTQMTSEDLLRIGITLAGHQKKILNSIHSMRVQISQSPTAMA
Assay: phosphorylation enrichment, bacterial display (enrichment ratio); higher = better substrate or ligand; peptides without Tyr show the background
Recorded phosphorylation enrichment by entry
Answer with the value's number alone.

Here is how some sequences turned out for phosphorylation enrichment.
FLQTDYTSQVS [FRMPD1_Y846]	0.37
HFEFKYVINAI [MAOA_Y268_C266F_YF]	0.686

What measured phosphorylation enrichment goes with GRKTLYSFFSP [UNG_Y8_Q4R] ?
0.709

Please report the recorded phosphorylation enrichment for IRDENYGEGSS [ACO2_Y665_G661R] .
0.364

Requested read-out: phosphorylation enrichment. Entry: PFQGAYLEINK [MYO1B_Y967]
0.609

Give its phosphorylation enrichment value. Item: ILTYKYLQIPM [KIT_Y547_K550I]
0.7

I have this sequence here, PAIERYVVVCK [RHO_Y136_L131P] , and I need its recorded phosphorylation enrichment.
0.896

Can you share its phosphorylation enrichment? I mean this sequence: MGRVNYGAYIN [GLB1_Y485]
0.504

Returns the measured phosphorylation enrichment for the input sequence. Input: SAQHHYESLQT [BIN1_Y157_R154Q]
0.463

So what's the measured phosphorylation enrichment for this one? FKDYFYCWNTS [AICDA_Y146_F151S]
5.4

Which measured phosphorylation enrichment value corresponds to LEDEVCAQKMK [TPM2_Y261_Y261C] ?
1.07

Query (sequence): FSNPAYYVLEG [INPPL1_Y986_N982S] ; field requested: phosphorylation enrichment
0.614

---

Target: c-Src SH2
Test: SH2 binding enrichment of the phosphorylated peptide, bacterial display (enrichment ratio); higher = better substrate or ligand; peptides without Tyr show the background
ASSAY METRIC: SH2 binding enrichment

// worked examples, SH2 binding enrichment included
QPDLLYDHIQP [TRRAP_Y862_F860L]	0.832
SSENPCATIKD [MEGF10_Y1030_Y1030C]	0.541
RGRKVYLEDGF [PRIM2_Y201]	0.435
AKKMKYFEGVS [PRKDC_Y682_I680M]	0.496

(A) KGLMPYGQPRP [SRRT_Y798_Q793K]
(B) QRDSSYFWEIE [RAF1_Y340_YF]
(C) RKRQFYLYKGK [RSPO4_Y112_C107R]
(D) HNQDGYSYLSR [LDLR_Y845_P848L]
Order the records so the highest SH2 binding enrichment appears first and the lowest last. // ordering of labels required in reply
D, B, A, C

---

Biological target: Fyn (UniProt P06241)
Sequence (P06241 whole entry, looked up): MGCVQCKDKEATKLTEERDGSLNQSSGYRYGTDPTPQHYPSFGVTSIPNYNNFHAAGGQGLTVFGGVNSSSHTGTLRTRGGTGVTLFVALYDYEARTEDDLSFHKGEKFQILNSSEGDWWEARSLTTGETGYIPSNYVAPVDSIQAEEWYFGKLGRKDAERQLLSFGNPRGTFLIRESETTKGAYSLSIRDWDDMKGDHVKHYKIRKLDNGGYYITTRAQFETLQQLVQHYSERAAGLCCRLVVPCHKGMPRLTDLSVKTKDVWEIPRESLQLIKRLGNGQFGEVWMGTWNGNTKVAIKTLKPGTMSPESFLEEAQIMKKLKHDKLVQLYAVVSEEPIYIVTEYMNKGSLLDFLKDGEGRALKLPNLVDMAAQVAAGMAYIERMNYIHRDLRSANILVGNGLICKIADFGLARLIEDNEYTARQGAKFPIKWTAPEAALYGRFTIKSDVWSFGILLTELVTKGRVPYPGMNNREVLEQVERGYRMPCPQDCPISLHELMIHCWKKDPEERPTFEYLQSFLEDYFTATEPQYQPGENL
Experiment: phosphorylation enrichment, bacterial display (enrichment ratio); higher = better substrate or ligand; peptides without Tyr show the background
Parameter phosphorylation enrichment: see the listing below.
Respond numerically, and do not add a unit to the figure.

Worked set:
YRASYYRKGGC [ALK_Y1283]	0.485
RNLLIYTEFGK [HGD_Y166_G161R]	8.15

Return reported phosphorylation enrichment; argument: NVVVPYEPPEV [TP53_Y220_S215N]
0.641

---

Molecular target: FGFR1 (UniProt P11362)
Sequence (P11362 whole entry, looked up): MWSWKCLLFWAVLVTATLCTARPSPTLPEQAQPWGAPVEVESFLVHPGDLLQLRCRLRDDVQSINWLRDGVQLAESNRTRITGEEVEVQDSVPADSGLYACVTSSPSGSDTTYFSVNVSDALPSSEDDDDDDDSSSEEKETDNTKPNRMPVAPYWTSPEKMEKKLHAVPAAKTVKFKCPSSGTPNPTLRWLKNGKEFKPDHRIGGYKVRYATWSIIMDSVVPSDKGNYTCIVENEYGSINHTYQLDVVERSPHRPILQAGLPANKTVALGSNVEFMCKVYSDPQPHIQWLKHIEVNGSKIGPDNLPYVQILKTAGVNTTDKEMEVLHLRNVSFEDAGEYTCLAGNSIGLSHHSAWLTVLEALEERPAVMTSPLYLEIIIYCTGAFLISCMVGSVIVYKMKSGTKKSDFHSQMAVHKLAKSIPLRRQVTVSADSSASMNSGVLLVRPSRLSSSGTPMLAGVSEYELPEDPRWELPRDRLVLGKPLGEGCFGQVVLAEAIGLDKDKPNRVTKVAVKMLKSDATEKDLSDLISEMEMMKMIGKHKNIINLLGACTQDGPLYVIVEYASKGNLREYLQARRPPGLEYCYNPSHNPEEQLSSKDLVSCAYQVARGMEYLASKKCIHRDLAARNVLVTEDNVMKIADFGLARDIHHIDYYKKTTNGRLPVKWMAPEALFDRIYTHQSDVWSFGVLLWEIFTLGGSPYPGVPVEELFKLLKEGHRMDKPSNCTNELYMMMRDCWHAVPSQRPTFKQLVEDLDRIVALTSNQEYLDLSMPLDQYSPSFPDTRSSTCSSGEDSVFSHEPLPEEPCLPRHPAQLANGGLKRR
Assay: phosphorylation enrichment, bacterial display (enrichment ratio); higher = better substrate or ligand; peptides without Tyr show the background
Listing of recorded phosphorylation enrichment by entry.
Reply briefly: the number, and no unit.

Solved entries (count: 8):
VMAVAYRLAEQ [HK1_Y461_T457M]	0.463
DYTEAYNSKIK [CLK1_Y305_P307S]	0.514
HGAKVYIDPFT [EPHB4_Y590_T587A]	1.46
PRPAGYPSTVS [CACNA1C_Y1832]	0.333
DAANNYARGHF [TUBA3E_Y103_S101N_YF]	0.422
FIRKDYEACKA [BBS4_Y48_YF]	0.502
IRTDAYVWAMT [RPE65_Y89_R91W]	0.613
RHLQEYQDPLN [GFAP_Y349_L352P]	0.723

Please turn your attention to the following entry.
What value of measured phosphorylation enrichment is listed for TGDFGYRAPGY [TNS2_Y668] ?
0.415

---

Molecular target: Hck (UniProt P08631)
Sequence (P08631 whole entry, looked up): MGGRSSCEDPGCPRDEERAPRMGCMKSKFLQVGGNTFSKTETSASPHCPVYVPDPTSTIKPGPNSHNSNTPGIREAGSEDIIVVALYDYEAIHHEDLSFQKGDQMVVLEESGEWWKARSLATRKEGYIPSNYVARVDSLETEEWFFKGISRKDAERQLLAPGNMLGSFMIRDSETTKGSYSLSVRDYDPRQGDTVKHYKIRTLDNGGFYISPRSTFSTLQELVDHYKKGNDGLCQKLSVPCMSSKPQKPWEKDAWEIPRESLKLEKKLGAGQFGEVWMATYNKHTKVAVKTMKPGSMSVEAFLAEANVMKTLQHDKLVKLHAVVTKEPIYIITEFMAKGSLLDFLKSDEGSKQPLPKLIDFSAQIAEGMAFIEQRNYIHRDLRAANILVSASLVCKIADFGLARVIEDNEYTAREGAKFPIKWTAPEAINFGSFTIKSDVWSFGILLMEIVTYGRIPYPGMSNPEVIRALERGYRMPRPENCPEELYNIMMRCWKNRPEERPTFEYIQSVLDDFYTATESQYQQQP
Experiment: phosphorylation enrichment, bacterial display (enrichment ratio); higher = better substrate or ligand; peptides without Tyr show the background
ASSAY METRIC: phosphorylation enrichment
Simply state the number, no unit and no words.

Look over these answered cases.
FKPGFYNLKEK [LAMA1_Y490_C485Y_YF]	0.489
HFGNNYRDVLQ [MACC1_Y803_YF]	0.594
ASQEEYSAMRD [KRAS_Y64_G60S]	0.531

Quick check: phosphorylation enrichment of SVGGCYEQLFV [MC4R_Y41_D37V] ?
1.46

Endpoint output: phosphorylation enrichment of YRASYYRKGGC [ALK_Y1283] . Value?
0.488

Which phosphorylation enrichment is listed for PELINYHQPNS [BTK_Y361_H364P] ?
0.734

Could you share which phosphorylation enrichment value was measured for ISIFHYAKGQP [MPZ_Y82] ?
0.466

Tell me the measured phosphorylation enrichment of KIKGWYEKCEP [KRT26_Y119] , please.
0.527

Looking for the measured phosphorylation enrichment of EFGFRYELVQY [UGGT2_Y1289_Y1285F] , can you help?
0.429

Form field: reported phosphorylation enrichment of YISLIYTNYEA [GSTP1_Y109]
2.83

Give its phosphorylation enrichment value. Item: GQSKGYRPKLY [SIPA1L3_Y1376]
0.4
